assay.target: CYP3A4 (Homo sapiens)
Construct: incubated with human liver microsomes (mixed gender, pool of 50 donors, 0.1 mg/mL); from tissue; host or cells: human liver microsomes, pool of 50 donors
Sequence (P08684 whole entry): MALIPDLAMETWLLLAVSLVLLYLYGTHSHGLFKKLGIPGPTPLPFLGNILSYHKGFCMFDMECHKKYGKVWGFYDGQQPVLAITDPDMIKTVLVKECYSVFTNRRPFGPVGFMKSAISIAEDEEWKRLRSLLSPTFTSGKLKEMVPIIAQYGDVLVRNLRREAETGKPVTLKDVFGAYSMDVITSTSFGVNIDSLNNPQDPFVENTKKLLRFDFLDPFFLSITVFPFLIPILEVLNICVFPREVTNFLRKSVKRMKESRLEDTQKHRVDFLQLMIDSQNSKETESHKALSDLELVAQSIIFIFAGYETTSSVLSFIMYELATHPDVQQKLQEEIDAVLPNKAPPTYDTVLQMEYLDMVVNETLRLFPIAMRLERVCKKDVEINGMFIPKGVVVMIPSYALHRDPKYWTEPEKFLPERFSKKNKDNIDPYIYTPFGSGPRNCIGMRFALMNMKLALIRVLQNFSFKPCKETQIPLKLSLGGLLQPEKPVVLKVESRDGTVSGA
assay: CYP450 inhibition in human liver microsomes, CYP3A4
Assay type: in vitro ADME
stated.conditions: both sexes, liver microsomes, pH 7.4, probe midazolam, 1 μM, Exp. 3, read-out: CYP3A4 (midazolam hydroxylase) % of control (Exp. 3)
property.measured: activity at 1 µM (%)
// note: answer is a bare numeric in %

Qu. // returns reported activity at 1 µM for input `COc1ccc2ncc(F)c(CC[C@@]3(O)CO[C@@H]4[C@@H](NCc5cc6c(cn5)OCCO6)CO[C@@H]43)c2n1`
Ans. 89.9
